test system: NIH3T3; assay: Induction of apoptosis in Swiss mouse 3T3 cells assessed as appearance of apoptotic morphology at 100 uM injected directly into intact cells after 3 hrs by Hoechst 33342 staining-based fluorescence microscopy in presence of esterase; format: cell-based; conditions: nih3t3, 3 h
Observation Type: Activity

C/C=C1/NC(=O)CC[C@H](C(=O)O)NC(=O)[C@@H](C)[C@H](/C=C/C(C)=C/[C@H](C)[C@H](Cc2ccccc2)OC)NC(=O)[C@H](CCC/N=C2/N=C(c3ccccc3)C(O)N2)NC(=O)[C@@H](C)[C@H](C(=O)O)NC1=O (some centres not stated)    Toxic
C/C=C1/NC(=O)CC[C@H](C(=O)OCOC(=O)CC)NC(=O)[C@@H](C)[C@H](/C=C/C(C)=C/[C@H](C)[C@H](Cc2ccccc2)OC)NC(=O)[C@H](CCCNC(=N)N)NC(=O)[C@@H](C)[C@H](C(=O)OCOC(=O)CC)NC1=O    Toxic
